Attribute: IC50
Biological target: human CXCR3 (N-delta 4) (Homo sapiens, UniProt P49682)
Construct: CD8 leader (N); Flag; expressed in transfected cells; membranes prepared
Sequence (P49682 5-368 limits assumed): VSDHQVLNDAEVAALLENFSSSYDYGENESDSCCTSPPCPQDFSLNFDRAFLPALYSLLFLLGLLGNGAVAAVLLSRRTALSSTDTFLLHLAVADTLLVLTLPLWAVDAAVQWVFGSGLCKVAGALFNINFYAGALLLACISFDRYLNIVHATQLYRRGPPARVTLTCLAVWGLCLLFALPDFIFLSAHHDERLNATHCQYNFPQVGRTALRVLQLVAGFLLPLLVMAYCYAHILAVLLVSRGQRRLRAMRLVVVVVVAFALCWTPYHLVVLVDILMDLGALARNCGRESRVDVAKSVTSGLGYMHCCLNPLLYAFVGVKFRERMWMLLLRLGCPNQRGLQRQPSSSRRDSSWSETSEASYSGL
Test: Human CXCR3 (N-delta 4) Scintillation Proximity Assay (SPA), [125I] IP-10 binding to Ba/F3-hCXCR3 membranes
Details: IC50 rating, Table 1; read-out: IC50

[[record]]
molecule = "CC[C@H]1CN(c2nc(N)c(C(=O)OC)nc2Cl)CCN1C1CCN(Cc2ccc(Cl)cc2CC#N)CC1 [compound 299]"
target_system = "human CXCR3 (N-delta 4) (Homo sapiens, UniProt P49682)"
measured_property = "IC50"
experimental_result = "25 to 100 nM"

[[record]]
molecule = "CC[C@H]1CN(c2nc(N)c(C(=O)NCCO)nc2Cl)CCN1C1CCN(C(c2ccc(Cl)cc2)c2nccs2)CC1 (stereo partly shown) [compound 207]"
target_system = "human CXCR3 (N-delta 4) (Homo sapiens, UniProt P49682)"
measured_property = "IC50"
experimental_result = "> 100 nM"

[[record]]
molecule = "CCOC(=O)/N=C(\\N)c1cc(Cl)ccc1CN1CCC(N2CCN(c3nc(N)c(C(=O)NCCO)nc3Cl)C[C@@H]2CC)CC1 [compound 114]"
target_system = "human CXCR3 (N-delta 4) (Homo sapiens, UniProt P49682)"
measured_property = "IC50"
experimental_result = "< 25 nM"


With those in mind, consider the next molecule.
Recorded result, CCNC(=O)c1cnc(N2C[C@H](CC)N(C3CCN(C(=O)c4ccc(Cl)cc4)CC3)C[C@H]2C)c(Cl)n1 [compound 474] , IC50: < 25 nM

----------
Attribute: pIC50
Target: human CXCR3 (N-delta 4) (Homo sapiens)
Construct: CD8 leader (N); Flag; expressed in transfected cells; membranes prepared
Assay: Human CXCR3 (N-delta 4) Scintillation Proximity Assay (SPA), [125I] IP-10 binding to Ba/F3-hCXCR3 membranes
Settings: IC50 rating, Table 1; read-out: IC50
Source text: The inventive compounds can readily be evaluated to determine activity at the CXCR3 receptors by known methods, such as, for example, development of a human CXCR3 (N-delta 4) Binding Assay. Cloning and Expression of Human CXCR3 (N-delta 4): The DNA encoding human CXCR3 was cloned by PCR using human genomic DNA (Promega, Madison, Wis.) as a template. […]
pIC50: −log10 of the molar value.

Sample records with pIC50:
[[record]]
molecule = "CC[C@H]1CN(c2nc(N)c(C(=O)NCCO)nc2Cl)CCN1C1CCN(Cc2ccc(C#N)cc2OCC(=O)NCCO)CC1 [compound 191]"
experimental_result = "7.00 to 7.60"

[[record]]
molecule = "CC[C@H]1CN(c2ncc(C(N)=O)nc2C)[C@H](C)CN1C1CCN(Cc2ccc(OC(F)(F)F)cc2)CC1"
experimental_result = "> 7.60"


Recorded result, CC[C@H]1CN(c2cnc(C(N)=O)cn2)CCN1C1CCN(Cc2ccc(Cl)cc2)CC1 , pIC50: < 7.00

Recorded result, CC[C@H]1CN(c2nc(N)c(C(=O)OC)nc2Cl)CCN1C1CCN(Cc2ccc(Cl)cc2CCNC(=O)OC(C)(C)C)CC1 , pIC50: > 7.60

----------
molecular target: human CXCR3 (N-delta 4) (Homo sapiens); construct: CD8 leader (N); Flag; expressed in transfected cells; membranes prepared; assay: Human CXCR3 (N-delta 4) Scintillation Proximity Assay (SPA), [125I] IP-10 binding to Ba/F3-hCXCR3 membranes; details: IC50 rating, Table 1; read-out: IC50
Measured property: IC50

[[record]]
chemical_smiles = "CC[C@H]1CN(c2nc(N)c(C(=O)NC(=N)NC)nc2Cl)CCN1C1CCN(C(=O)c2ccc(OC(F)(F)F)cc2)CC1"
measured_property = "IC50"
experimental_result = "< 25 nM"

[[record]]
chemical_smiles = "CC[C@H]1CN(c2nc(N)c(C(=O)NCCO)nc2Cl)CCN1C1CCN(Cc2ccc(Cl)cc2C(=O)O)CC1"
measured_property = "IC50"
experimental_result = "< 25 nM"

[[record]]
chemical_smiles = "CC[C@H]1CN(c2nc(N)c(C(=O)NCCO)nc2Cl)CCN1C1CCN(Cc2ccc(Cl)cc2C(=N)NC)CC1"
measured_property = "IC50"
experimental_result = "< 25 nM"

[[record]]
chemical_smiles = "CC[C@H]1CN(c2nc(N)c(C(=O)NC(=N)NC)nc2Cl)CCN1C1CCN(Cc2ccc(Cl)cc2)CC1"
measured_property = "IC50"
experimental_result = "< 25 nM"

[[record]]
chemical_smiles = "CC[C@H]1CN(c2nc(N)c(C(=O)NC)nc2Cl)CCN1C1CCN(C(=O)c2ccc(-n3cccn3)cc2)CC1"
measured_property = "IC50"
experimental_result = "> 100 nM"


Recorded result, CC[C@H]1CN(c2ncc(C(N)=O)nc2Cl)CCN1C1CCN(Cc2ccc(Cl)cc2F)CC1 , IC50: < 25 nM

----------
biological target: human CXCR3 (N-delta 4) (Homo sapiens); construct: CD8 leader (N); Flag; expressed in transfected cells; membranes prepared; assay: Human CXCR3 (N-delta 4) Scintillation Proximity Assay (SPA), [125I] IP-10 binding to Ba/F3-hCXCR3 membranes; details: IC50 rating, Table 1; read-out: IC50
pIC50: −log10 of the molar value.
Attribute: pIC50

Sample records with pIC50:
[[record]]
compound = "CC[C@H]1CN(c2nc(N)c(C(N)=O)nc2Cl)CCN1C1CCN(Cc2ccc(Cl)cc2NC(=O)C(C)O)CC1 (stereo partly shown) [compound 27]"
measured_property = "pIC50"
experimental_result = "7.00 to 7.60"

[[record]]
compound = "CC[C@H]1CN(c2nc(N)c(C(=O)NCCO)nc2Cl)CCN1C1CCN(Cc2ccc(C(=O)OC)cc2)CC1"
measured_property = "pIC50"
experimental_result = "> 7.60"

[[record]]
compound = "CC[C@H]1CN(c2nc(N)c(C(=O)NCCO)nc2Cl)CCN1C1CCN(Cc2ccc(Cl)cc2NS(C)(=O)=O)CC1"
measured_property = "pIC50"
experimental_result = "< 7.00"


With those in mind, consider the next compound.
Recorded result, CC[C@H]1CN(c2nc(N)c(C(N)=O)nc2Cl)CCN1C1CCN(Cc2ccc(Cl)cc2CCO)CC1 , pIC50: > 7.60

----------
Target: human CXCR3 (N-delta 4) (Homo sapiens)
Construct: CD8 leader (N); Flag; expressed in transfected cells; membranes prepared
Sequence (P49682 5-368 limits assumed): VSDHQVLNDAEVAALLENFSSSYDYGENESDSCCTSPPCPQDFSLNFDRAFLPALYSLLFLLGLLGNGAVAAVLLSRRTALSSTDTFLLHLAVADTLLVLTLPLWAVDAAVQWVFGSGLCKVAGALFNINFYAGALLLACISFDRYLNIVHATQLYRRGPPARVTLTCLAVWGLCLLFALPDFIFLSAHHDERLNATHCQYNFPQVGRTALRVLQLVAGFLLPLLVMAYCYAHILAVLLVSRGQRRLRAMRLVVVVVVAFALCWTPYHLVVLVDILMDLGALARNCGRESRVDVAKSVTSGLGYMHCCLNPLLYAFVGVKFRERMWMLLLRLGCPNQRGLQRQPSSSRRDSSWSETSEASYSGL
Assay: Human CXCR3 (N-delta 4) Scintillation Proximity Assay (SPA), [125I] IP-10 binding to Ba/F3-hCXCR3 membranes
Conditions: IC50 rating, Table 1; read-out: IC50
From the text: The inventive compounds can readily be evaluated to determine activity at the CXCR3 receptors by known methods, such as, for example, development of a human CXCR3 (N-delta 4) Binding Assay. Cloning and Expression of Human CXCR3 (N-delta 4): The DNA encoding human CXCR3 was cloned by PCR using human genomic DNA (Promega, Madison, Wis.) as a template. […]
Attribute: IC50

Sample records with IC50:
[[record]]
chemical_smiles = "CC[C@H]1CN(c2ncc(C(N)=O)nc2C)CCN1C1CCN(C(=O)c2ccc(Cl)cc2)CC1"
experimental_result = "< 25 nM"

[[record]]
chemical_smiles = "CC[C@H]1CN(c2nc(N)c(C(=O)NCCO)nc2Cl)CCN1C1CCN(Cc2ccc(C#N)cc2OCCO)CC1"
experimental_result = "< 25 nM"

[[record]]
chemical_smiles = "CC[C@H]1CN(c2nc(N)c(C(=O)NCCO)nc2Cl)CCN1C1CCN(C(=O)c2ccc(Cl)cc2O)CC1"
experimental_result = "25 to 100 nM"

[[record]]
chemical_smiles = "CC[C@H]1CN(c2ncc(C(=O)NC3CC3)nc2C)CCN1C1CCN([C@H](CO)c2ccc(Cl)cc2)CC1"
experimental_result = "< 25 nM"

[[record]]
chemical_smiles = "CC[C@H]1CN(c2nc(N)c(C(=O)NC)nc2Cl)CCN1C1CCN(CCCOc2ccc(F)cc2)CC1"
experimental_result = "> 100 nM"

[[record]]
chemical_smiles = "CC[C@H]1CN(c2nc(N)c(C(=O)NCCNS(C)(=O)=O)nc2Cl)CCN1C1CCN(Cc2ccc(Cl)cc2N2CC[C@@H](O)C2)CC1"
experimental_result = "25 to 100 nM"


With those in mind, consider the next compound.
Recorded result, CCNC(=O)c1nc(Cl)c(N2CCN(C3CCN(Cc4ccc(Cl)cc4)CC3)[C@@H](CC)C2)nc1N , IC50: < 25 nM
